meta.source: ChEMBL document CHEMBL4033775

biological target: Retinoic acid receptor RXR-gamma (Homo sapiens, UniProt P48443); test: Agonist activity at RXRgamma (unknown origin)
Sequence (P48443 whole entry): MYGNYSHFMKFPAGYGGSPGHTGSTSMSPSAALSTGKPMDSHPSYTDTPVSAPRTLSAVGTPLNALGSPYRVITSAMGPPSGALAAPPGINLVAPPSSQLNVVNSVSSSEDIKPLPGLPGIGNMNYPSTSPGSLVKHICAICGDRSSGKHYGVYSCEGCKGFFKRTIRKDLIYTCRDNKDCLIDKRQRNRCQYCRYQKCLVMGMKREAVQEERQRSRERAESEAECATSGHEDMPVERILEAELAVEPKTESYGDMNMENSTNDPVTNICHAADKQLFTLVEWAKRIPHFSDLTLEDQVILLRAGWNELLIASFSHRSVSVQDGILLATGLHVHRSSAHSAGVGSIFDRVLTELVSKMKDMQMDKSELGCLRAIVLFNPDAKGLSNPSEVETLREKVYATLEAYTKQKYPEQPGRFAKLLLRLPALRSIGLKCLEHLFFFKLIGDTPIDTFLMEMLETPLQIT
Reported metric: EC50 (nM)

[P] C=C(c1ccc(C(=O)O)cc1)c1cc2c(cc1C)C(C)(C)CCC2
[Q] C=C(c1ccc(C(=O)O)cc1)c1cc2c(cc1C)CCCC2(C)C
Query: Compare reported EC50 values for P and Q . Which is lower? Record your answer as the label of the chosen record.
Result: P

* * *

Biological target: Retinoic acid receptor alpha (Homo sapiens, UniProt P10276)
Sequence (P10276 whole entry): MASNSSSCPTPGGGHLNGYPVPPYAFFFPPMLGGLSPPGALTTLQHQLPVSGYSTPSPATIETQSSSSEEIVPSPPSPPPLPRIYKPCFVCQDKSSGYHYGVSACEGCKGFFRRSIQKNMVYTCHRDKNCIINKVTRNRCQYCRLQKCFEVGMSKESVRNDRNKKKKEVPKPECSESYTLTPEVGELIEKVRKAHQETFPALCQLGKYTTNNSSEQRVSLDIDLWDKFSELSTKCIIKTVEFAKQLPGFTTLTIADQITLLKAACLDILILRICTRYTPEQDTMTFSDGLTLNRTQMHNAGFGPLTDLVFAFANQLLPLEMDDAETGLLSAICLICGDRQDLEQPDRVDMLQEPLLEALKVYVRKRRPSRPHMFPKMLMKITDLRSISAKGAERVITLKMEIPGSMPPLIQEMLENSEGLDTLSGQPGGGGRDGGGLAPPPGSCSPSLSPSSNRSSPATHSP
Experiment: Agonist activity at RARaplha (unknown origin)
Recorded EC50 values for a group of compounds are listed next.

C=C(c1ccc(C(=O)O)cc1)c1cc2c(cc1C)CCCC2(C)C : > 10 µM

Would you kindly look at the next entry?
Query: Entry C=C(c1ccc(C(=O)O)cc1)c1cc2c(cc1C)C(C)(C)CCC2 needs its EC50 filled in; supply it.
Result: > 10 µM

* * *

experiment: Aqueous solubility of the compound at physiological pH; format: physicochemical; settings: buffer
Reported metric: solubility (µg/mL)
# value in µg/mL; strip the unit string

Query: Provide solubility value for the following molecule: COc1ccc(S(=O)(=O)N2CCCSC(C)(C)[C@@H]2C(=O)NO)cc1
Result: 800

* * *

assay: Tmax in Sprague-Dawley rat at 10 mg/kg, po measured up to 120 mins post dose by HPLC analysis; type: ADME, organism-based; details: in vivo
Reported metric: Tmax (min)
Provide only the numeric value, understood in min.

Query: Indicate the recorded Tmax value for this compound: CCOC(=O)CC1CCN(C(=O)CC(CC)NC(=O)c2ccc(C(=N)N3CCSC3)cc2F)CC1 (racemic)
Result: 30

* * *

biological target: Retinoic acid receptor beta (Homo sapiens); experiment: Agonist activity at RARbeta (unknown origin)
Sequence (P10826 whole entry): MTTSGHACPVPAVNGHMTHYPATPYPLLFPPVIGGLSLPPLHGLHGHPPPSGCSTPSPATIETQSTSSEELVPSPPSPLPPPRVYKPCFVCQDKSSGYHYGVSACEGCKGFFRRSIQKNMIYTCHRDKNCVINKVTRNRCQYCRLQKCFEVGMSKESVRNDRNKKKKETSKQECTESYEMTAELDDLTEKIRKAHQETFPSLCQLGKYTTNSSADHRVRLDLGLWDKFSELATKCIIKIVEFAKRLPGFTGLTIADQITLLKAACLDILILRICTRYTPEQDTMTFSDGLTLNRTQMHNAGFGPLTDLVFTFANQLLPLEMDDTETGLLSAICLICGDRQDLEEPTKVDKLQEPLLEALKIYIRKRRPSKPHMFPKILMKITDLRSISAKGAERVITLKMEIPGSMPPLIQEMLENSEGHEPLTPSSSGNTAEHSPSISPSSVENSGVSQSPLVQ
Reported metric: EC50

C=C(c1ccc(C(=O)O)cc1)c1cc2c(cc1C)C(C)(C)CCC2 : > 10 µM

Proceeding to the next molecule to report its EC50.
Query: Quote EC50 reported for C=C(c1ccc(C(=O)O)cc1)c1cc2c(cc1C)CCCC2(C)C please.
Result: > 10 µM

* * *

molecular target: Interstitial collagenase (Homo sapiens, UniProt P03956); assay: Inhibition of human interstitial recombinant N-terminal MMP1 expressed in Escherichia coli BL21(DE3) using Mca-Pro-Leu-Gly-Leu-Dpa-Ala-Arg-NH2 as substrate after 20 to 30 mins by spectrofluorimetric analysis
Sequence (P03956 whole entry): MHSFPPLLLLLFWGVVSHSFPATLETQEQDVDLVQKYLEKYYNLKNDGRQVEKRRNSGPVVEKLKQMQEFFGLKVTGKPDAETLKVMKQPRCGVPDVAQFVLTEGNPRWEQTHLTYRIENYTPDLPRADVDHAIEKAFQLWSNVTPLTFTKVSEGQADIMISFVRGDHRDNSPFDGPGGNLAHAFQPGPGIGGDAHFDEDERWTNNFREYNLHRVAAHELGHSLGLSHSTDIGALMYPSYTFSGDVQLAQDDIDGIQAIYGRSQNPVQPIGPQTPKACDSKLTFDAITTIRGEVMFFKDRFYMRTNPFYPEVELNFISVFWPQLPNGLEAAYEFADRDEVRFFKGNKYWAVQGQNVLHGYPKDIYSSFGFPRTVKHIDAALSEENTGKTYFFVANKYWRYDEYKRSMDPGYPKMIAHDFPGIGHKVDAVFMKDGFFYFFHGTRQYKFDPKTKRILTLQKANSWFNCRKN
pIC50: −log10 of the molar value.
Reported metric: pIC50

[a] COc1ccc(S(=O)(=O)N2CCCSC[C@@H]2C(=O)NO)cc1
[b] COc1ccc(S(=O)(=O)N2CCSC(C)(C)C2C(=O)NO)cc1 (configuration not stated)
Query: Between a and b , which one has the lower reported pIC50 value? Which one? Tell me its label.
Result: a
